- subject.of.test: A. baumannii PBP2 (Acinetobacter baumannii, UniProt D0C8Z9)
- Construct: made in house
- Sequence (D0C8Z9 whole entry): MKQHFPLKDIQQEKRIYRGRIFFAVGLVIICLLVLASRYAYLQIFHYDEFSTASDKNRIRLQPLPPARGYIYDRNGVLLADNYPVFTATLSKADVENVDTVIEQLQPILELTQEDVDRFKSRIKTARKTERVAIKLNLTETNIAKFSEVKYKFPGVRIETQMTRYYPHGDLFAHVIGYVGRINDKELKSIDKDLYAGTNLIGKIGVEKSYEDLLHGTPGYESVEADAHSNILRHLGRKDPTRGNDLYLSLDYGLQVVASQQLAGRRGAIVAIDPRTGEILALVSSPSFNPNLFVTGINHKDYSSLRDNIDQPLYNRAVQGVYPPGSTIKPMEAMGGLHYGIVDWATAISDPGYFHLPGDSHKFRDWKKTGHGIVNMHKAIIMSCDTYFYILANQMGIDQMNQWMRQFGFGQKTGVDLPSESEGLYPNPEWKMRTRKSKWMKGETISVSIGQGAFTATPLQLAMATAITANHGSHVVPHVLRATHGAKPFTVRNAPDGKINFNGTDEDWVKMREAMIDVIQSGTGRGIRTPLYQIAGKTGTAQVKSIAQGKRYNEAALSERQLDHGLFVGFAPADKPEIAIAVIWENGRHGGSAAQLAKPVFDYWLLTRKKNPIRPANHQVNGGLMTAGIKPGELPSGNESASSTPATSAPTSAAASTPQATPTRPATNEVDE
- experiment.notes: Bocillin-FL fluorescence polarization competition binding assay, A. baumannii PBP2
- study.conditions: fluorescence polarization competition binding assay using Bocillin-FL; read-out: A. baumannii PBP2 Potency
pEC50: −log10 of the molar value.
Exercise: for every item that follows, state its recorded pEC50.

Query string: Give its pEC50 value. Item: C[C@@H](O)[C@@H](NC(=O)N1CCN(CCNC(=O)c2c(F)cc(O)c(O)c2Cl)C(=O)C1=O)C(=O)N[C@H]1Cc2ccc(F)c(C(=O)O)c2OB1O
Result string: < 4.00

Query string: Can you handle CCN1CCN(C(=O)N[C@@H](C(=O)N[C@H]2Cc3cc(Cl)c(F)c(C(=O)O)c3OB2O)c2c(F)cc(O)c(O)c2Cl)C(=O)C1=O next?
Result string: 4.00 to 4.52

Query string: Can you handle NS(=O)(=O)c1cc(O)cc(C(NC(=O)N2CCN(Cc3c(F)cc(O)c(O)c3Cl)C(=O)C2=O)C(=O)N[C@H]2Cc3cccc(C(=O)O)c3OB2O)c1 (stereo partly drawn) next?
Result string: < 4.00

Query string: Can you handle NCCN1CCN(C(=O)N[C@@H](C(=O)N[C@H]2Cc3ccc(F)c(C(=O)O)c3OB2O)c2cc(F)c(O)c(O)c2Cl)C(=O)C1=O (single isomer, unassigned) next?
Result string: < 4.00

Query string: Can you handle O=C(O)c1c(F)ccc2c1OB(O)[C@@H](NC(=O)[C@H](NC(=O)N1CCNC1=O)c1c(F)cc(O)c(O)c1Cl)C2 (single isomer, unassigned) next?
Result string: 4.00 to 4.52

Query string: Can you handle CS(=O)(=O)N1CCN(C(=O)NC(C(=O)N[C@H]2Cc3ccc(F)c(C(=O)O)c3OB2O)c2ccc(O)c(O)c2Cl)C1=O (stereo partly drawn) next?
Result string: < 4.00

Query string: Can you handle NCCN1CCN(C(=O)N[C@@H](C(=O)N[C@H]2Cc3ccc(F)c(C(=O)O)c3OB2O)c2c(F)cc(O)c(O)c2F)C(=O)C1=O (single isomer, unassigned) next?
Result string: 4.00 to 4.52

Query string: Can you handle NC1(CN2CCN(C(=O)N[C@@H](C(=O)N[C@H]3Cc4ccc(F)c(C(=O)O)c4OB3O)c3c(F)cc(O)c(O)c3Cl)C(=O)C2=O)CC1 (single isomer, unassigned) next?
Result string: 4.00 to 4.52

Query string: Can you handle CCN1CCN(C(=O)N[C@@H](C(=O)N[C@H]2Cc3cccc(C(=O)O)c3OB2O)c2c(O)cc(O)cc2F)C(=O)C1=O (single isomer, unassigned) next?
Result string: < 4.00

Query string: Can you handle NCCCN1CCN(C(=O)N[C@@H](C(=O)N[C@H]2Cc3ccc(F)c(C(=O)O)c3OB2O)c2cc(F)c(O)c(O)c2Cl)C(=O)C1=O (single isomer, unassigned) next?
Result string: < 4.00

Query string: Can you handle NS(=O)(=O)Nc1cccc(C(NC(=O)N2CCN(Cc3c(F)cc(O)c(O)c3Cl)C(=O)C2=O)C(=O)N[C@H]2Cc3cccc(C(=O)O)c3OB2O)c1 (stereo partly drawn) next?
Result string: 4.00 to 4.52

Query string: Can you handle CCN1CCN(C(=O)NC(C(=O)N[C@H]2Cc3cccc(C(=O)O)c3OB2O)c2ccc(O)c(NC(=O)c3ccc(O)c(O)c3Cl)c2)C(=O)C1=O (stereo partly drawn) next?
Result string: < 4.00

Query string: Can you handle CCN1CCN(C(=O)NC(C(=O)N[C@H]2Cc3cccc(C(=O)O)c3OB2O)c2c(F)cc(N)cc2F)C(=O)C1=O (stereo partly drawn) next?
Result string: < 4.00

Query string: Can you handle NCCCN1CCN(C(=O)N[C@@H](C(=O)N[C@H]2Cc3ccc(F)c(C(=O)O)c3OB2O)c2c(F)cc(O)c(O)c2Cl)C(=O)C1=O (single isomer, unassigned) next?
Result string: < 4.00

Query string: Can you handle O=C(NCCCN1CCN(C(=O)NC(C(=O)N[C@H]2Cc3ccc(F)c(C(=O)O)c3OB2O)c2ncc(O)cc2F)C(=O)C1=O)c1ccc(O)c(O)c1Cl (stereo partly drawn) next?
Result string: < 4.00
